molecular target: Lck SH2 domain (UniProt P06239 118-231, biotin on the Avi-tag (yeast binding assay, pull-down)); test: fluorescence polarisation
Sequence (P06239 118-231): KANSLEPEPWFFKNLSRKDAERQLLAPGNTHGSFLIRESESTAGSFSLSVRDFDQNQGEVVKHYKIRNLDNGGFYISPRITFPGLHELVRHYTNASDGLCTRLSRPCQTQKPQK
pKd: −log10 of the molar value. Non-standard residues stand in square brackets, D forms with d. No end group written: not given here. *: point of attachment. FITC = O=C1OC2(c3ccc(O)cc3Oc3cc(O)ccc32)c2ccc(NC(=S)*)cc21; pY = N[C@@H](Cc1ccc(OP(=O)(O)O)cc1)C(=O)O
observed.property: pKd

(A) {FITC}-ADND[pY]IIPLPD [(FITC)-ADNDpYIIPLPD]
(B) {FITC}-TEGQ[pY]QPQPA [(FITC)-TEGQpYQPQPA]
Please choose the item with the lower pKd value from this pair: A and B Record your answer as the label of the chosen record.
B
